These data points were gathered from patent US8247002B2.

test: Inhibitory effects on generation of peroxide lipid, methyl linoleate as substrate; type: biochemical; conditions: 100 μl of 500 ppm solution, 89 mg methyl linoleate, 40° C. 18 hours in the dark
ASSAY_ENDPOINT: Rate of inhibition against oxidation of methyl linoleate (%)

[
  {
    "SMILES_RECORD": "C[C@@H]1O[C@@H](O[C@H]2[C@H](Oc3cc(O)c4c(c3)O[C@H](c3ccc(O)c(O)c3)CC4=O)O[C@H](CO)[C@@H](O)[C@@H]2O)[C@H](O)[C@H](O)[C@H]1O",
    "UNITS_OF_MEASURE": "%",
    "NUMERIC_RESULT": 9.24
  },
  {
    "SMILES_RECORD": "Cc1c(C)c2c(c(C)c1O)CC[C@@](C)(CCC[C@H](C)CCC[C@H](C)CCCC(C)C)O2",
    "UNITS_OF_MEASURE": "%",
    "NUMERIC_RESULT": 16.97
  },
  {
    "SMILES_RECORD": "O=C1C[C@@H](c2ccc(O)c(O)c2)Oc2cc(O)cc(O)c21",
    "UNITS_OF_MEASURE": "%",
    "NUMERIC_RESULT": 20.99
  },
  {
    "SMILES_RECORD": "C[C@@H]1O[C@@H](OC[C@H]2O[C@@H](Oc3cc(O)c4c(c3)O[C@H](c3ccc(O)c(O)c3)CC4=O)[C@H](O)[C@@H](O)[C@@H]2O)[C@H](O)[C@H](O)[C@H]1O",
    "UNITS_OF_MEASURE": "%",
    "NUMERIC_RESULT": 8.00
  },
  {
    "SMILES_RECORD": "O=C1O[C@H]([C@@H](O)CO)C(O)=C1O",
    "UNITS_OF_MEASURE": "%",
    "NUMERIC_RESULT": 8.32
  }
]
